testedSystem: T1, human BCMA on BCMA expressing cell lines (human, UniProt Q02223 1-184)
T1 sequence: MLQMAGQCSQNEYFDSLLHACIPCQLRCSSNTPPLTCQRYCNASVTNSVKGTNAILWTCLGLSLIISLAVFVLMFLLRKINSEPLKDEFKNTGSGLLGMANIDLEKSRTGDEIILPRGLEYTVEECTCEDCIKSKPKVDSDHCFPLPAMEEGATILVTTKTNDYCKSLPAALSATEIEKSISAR
procedureText: cell-based or functional assay
observable: TDCC MOLP-8 EC50 (pM)
I only need the number, in pM, no unit after it.

Solved entries (count: 4):
binder	TDCC MOLP-8 EC50 / pM
BCMA targeting trispecific protein 02G02 (other, trispecific; also called 02G02 TriTAC; not shown: anti-albumin domain, anti-CD3 domain and the linkers of the trispecific (TriTAC) format) VHH: EVQLVESGGGLVQPGRSLTLSCAASTNIFSITPMGWYRQAPGKQRELVAAIHGASTLYADSVKGRFTISRDNAKNSIYLQMNSLRPEDTALYYCNKVPWGDYHPGNVYWGQGTQVTVSS	2.8
BCMA targeting trispecific protein 02E05 (other, trispecific; also called 02E05 TriTAC; not shown: the C-terminal 6xHis tag follows those domains and is left out) VHH: EVQLVESGGGLVQPGRSLTLSCAASTNIFSRSPMGWYRQAPGKQRELVAAIHGISTLYADSVKGRFTISRDNAKNSIYLQMNSLRPEDTALYYCNKVPWGDYHPGNVYWGQGTQVTVSS	3.3
BCMA targeting trispecific protein 01G08 (other, not shown: large carriers; small tags and cut ends, trispecific; also called 01G08 TriTAC) VHH: EVQLVESGGGLVQPGRSLTLSCAASTNIQSISPMGWYRQAPGKQRELVAAIHGFETLYADSVKGRFTISRDNAKNSIYLQMNSLRPEDTALYYCNKVPWGDYHPGNVYWGQGTQVTVSS	2.5
BCMA targeting trispecific protein 02F04 (other, not shown: large carriers; small tags and cut ends, trispecific; also called 02F04 TriTAC) VHH: EVQLVESGGGLVQPGRSLTLSCAASTNIFSSSPMGWYRQAPGKQRELVAAIHGFSTLYADSVKGRFTISRDNAKNSIYLQMNSLRPEDTALYYCNKVPWGDYHPGNVYWGQGTQVTVSS	2.5

Please turn your attention to the following entry.
TDCC MOLP-8 EC50 reported for this binder 01F07-M34G TriTAC (other, not shown: large carriers; small tags and cut ends, trispecific; also called 01F01-M34G) VHH: EVQLVESGGGLVQPGRSLTLSCAASTNIFSTSPGGWYRQAPGKQRELVAAIHGFSTIYADSVKGRFTISRDNAKNSIYLQMNSLRPEDTALYYCNKVPWGDYHPGNVYWGQGTQVTVSS : 2.2
